Entry source: patent US20190153103A1

# % live, Fab-saporin, 250pM per entry
# measurement-target: human BMPR1B overexpressed on the surface of HEK293T cells (N-terminal Asp-Lys epitope tag, … (human, UniProt O00238 14-502))
# Sequence (O00238 14-502): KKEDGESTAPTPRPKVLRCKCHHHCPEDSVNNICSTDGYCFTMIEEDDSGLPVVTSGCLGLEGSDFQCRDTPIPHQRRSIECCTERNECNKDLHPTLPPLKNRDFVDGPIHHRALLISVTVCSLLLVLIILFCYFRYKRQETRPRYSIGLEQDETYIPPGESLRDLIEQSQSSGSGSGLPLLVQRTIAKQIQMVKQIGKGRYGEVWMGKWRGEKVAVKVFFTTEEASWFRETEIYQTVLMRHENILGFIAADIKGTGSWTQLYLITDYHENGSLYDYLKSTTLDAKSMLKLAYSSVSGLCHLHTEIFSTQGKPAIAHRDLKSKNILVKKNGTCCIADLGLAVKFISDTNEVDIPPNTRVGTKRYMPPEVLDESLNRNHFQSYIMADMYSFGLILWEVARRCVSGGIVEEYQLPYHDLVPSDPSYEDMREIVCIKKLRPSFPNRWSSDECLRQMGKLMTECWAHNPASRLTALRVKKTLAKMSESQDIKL
# method-description: cell-based or functional assay
A number alone suffices; assume %.

INSERT INTO assay_data (binder, assay_readout, quantitative_readout) VALUES
  ('SC91.149 (antibody, V domains shown) VH: QVQLLQPGAELVKPGSSVKVSCKASGYTFTNYWMQWVKQRPGQGLEWIGEIDPSDTYTLYNQKFKGKATLTVDTSSSTAYMQLSSLTSEDSAVYYCARFGYYVDYWGQGTTLTVSS VL: DVVMTQTPLSLPVSLGDQASISCRSSQSLVHSTGNTYFHWYLQKPGQSPELLIYKVSNRFSGVPDRFRGSGSGTDFTLKISRVEAEDLGVYFCSQSTHVPFTFGSGTKLEIK', '% live, Fab-saporin, 250pM', 18.3),
  ('SC91.129 (antibody, V domains shown, copies: 2 + 2) VH: QVQLQQPGAELVKPGASVKLSCKASGYTFTNYWMQWVKQRPGQGLEWIGEIDPSDRYTLYNQKFKDKATLTVDTSSSTAYMQLSSLTSEDSAVYYCARFGYYVDYWGQGTTLTVSS VL: DAVMTQSPLSLPVSLGDQASISCRSSQSLVHSTGNTYLHWYLQKPGQSPKLLIYKVSNRFSGVPDRFSGSGSGTDFTLKISRVEAEDLGVYFCSQTTHVPFTFGSGTKLEIK', '% live, Fab-saporin, 250pM', 23.1),
  ('SC91.111 (antibody, V domains shown, copies: 2 + 2) VH: QIQLVQSGPELKKPGETVKISCKASGYTLTTYGMNWVKQAPGKGLKWMGWINTYSGVPAYADDFKGRFAFSLETSASTAYLQINNFKNEDTATYFCARSELRNWYFDVWGTGTTVTVSS VL: SFVMTQTPKFLLVSAGDRVTITCKASQNMGHNVAWYQQKPGQSPKLLIYYASNRYTGVPDRFTGSGYGTDFTFTISTVQAEDLAVYFCQQDYSSPFTFGSGTKLEIK', '% live, Fab-saporin, 250pM', 20.3);

We next turn to a different binder, shown below.
Record SC91.172 (antibody, V domains shown) VH: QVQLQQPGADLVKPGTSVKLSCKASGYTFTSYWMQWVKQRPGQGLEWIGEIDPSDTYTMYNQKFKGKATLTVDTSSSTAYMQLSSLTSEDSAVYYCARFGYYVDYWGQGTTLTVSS VL: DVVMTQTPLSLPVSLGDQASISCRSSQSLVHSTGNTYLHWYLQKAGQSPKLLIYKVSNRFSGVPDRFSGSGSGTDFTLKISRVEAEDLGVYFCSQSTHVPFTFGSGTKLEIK , field % live, Fab-saporin, 250pM: 19.6
